tested on: Pseudomonas aeruginosa; experiment: Antibacterial activity against Pseudomonas aeruginosa MTCCB 741 at 30 ug/disc after 48 hrs by disc diffusion method; assay type: functional; conditions: read-out: IZ
property: zone of inhibition at 30 µg/disc (mm)
// units = mm; emit number, no label

Query string: Consider the compound N#CCCN1CCN(CCC#N)CC1 tested on Pseudomonas aeruginosa; state its zone of inhibition at 30 µg/disc.
Result string: 11

Query string: Consider the compound COc1ccccc1N1CCN(CC#N)CC1 tested on Pseudomonas aeruginosa; state its zone of inhibition at 30 µg/disc.
Result string: 8

Query string: Consider the compound COc1ccccc1N1CCN(CCC#N)CC1 tested on Pseudomonas aeruginosa; state its zone of inhibition at 30 µg/disc.
Result string: 9

Query string: Consider the compound N#CCN1CCN(Cc2ccccc2)CC1 tested on Pseudomonas aeruginosa; state its zone of inhibition at 30 µg/disc.
Result string: 13

Query string: Consider the compound CN1CCN(CC#N)CC1 tested on Pseudomonas aeruginosa; state its zone of inhibition at 30 µg/disc.
Result string: 9

Query string: Consider the compound CN1CCN(CCC#N)CC1 tested on Pseudomonas aeruginosa; state its zone of inhibition at 30 µg/disc.
Result string: 19

Query string: Consider the compound N#CCCN1CCN(c2ccccc2)CC1 tested on Pseudomonas aeruginosa; state its zone of inhibition at 30 µg/disc.
Result string: 9

Query string: Consider the compound N#CCN1CCN(c2ccccc2)CC1 tested on Pseudomonas aeruginosa; state its zone of inhibition at 30 µg/disc.
Result string: 13

Query string: Consider the compound N#CCCN1CCN(CCO)CC1 tested on Pseudomonas aeruginosa; state its zone of inhibition at 30 µg/disc.
Result string: 15

Where do the numbers come from? From ChEMBL document CHEMBL1143797.
